System: NIH3T3
method description: GSK_TCAKS: pIC50 NIH 3T3 cell line viability assay using luminiscence. Tissue culture surface treated assay plates (1536-well) were used. […] The 100% cells survival control was determined exposing the host-cells to a 0.5% DMSO concentration, whereas the 100% toxicity control was achieved by seeding the cells in presence of Amphotericin B at 50uM. Plates were incubated for four days at 37C, 5% CO2. The assay readout was developed by addition of 5uL of CellTiter-Glo Reagent following the manufacturer's instructions. Luminiscence was measured using a ViewLux.
Type: functional, cell-based
test parameters: Mus musculus, NIH3T3, 96 h
Binarize IC50 at 20 µM; below is 1 (yes), at or above is 0 (no).

compound | qualitative label
Clc1cc(Br)ccc1OCCCCn1ccnc1 | 1 (yes)
CCOc1ccc(NC(=O)C=Cc2ccc(CC)o2)cc1 | 0 (no)
Cc1ccc2ccc(C(Nc3ccccn3)c3cccnc3)c(O)c2n1 (stereo unspecified) | 1 (yes)
COc1ccc(CN2CCCCC2c2nc(-c3cccnc3)no2)cc1 (stereo unspecified) | 0 (no)
CN(C)CCOc1ccc(N2CCN(S(=O)(=O)c3ccc(Cl)cc3)CC2)cc1 | 1 (yes)
C=CCOCC1Cn2nc([N+](=O)[O-])nc2O1 (stereo unspecified) | 0 (no)
c1ccc(CCNCc2cncc3nc(-c4cnccn4)n(C4CCCCC4)c23)cc1 | 1 (yes)
CN(C(=O)Nc1ccc2c(c1)CCN(C1CCC1)CC2)c1ccc(C#N)cc1 | 0 (no)
Cn1c(CN2CCN(c3ncc(C(F)(F)F)cc3Cl)CC2)nc2ccncc21 | 1 (yes)
Cc1n[nH]c2c1C(c1ccc(OCc3ccccc3F)cc1)SCC(=O)N2 (stereo unspecified) | 0 (no)

----------
Measured pIC50 accompanies every entry in the list below.
Test system: Trypanosoma cruzi
method description: GSK_TCAKS: pIC50 Trypanosoma cruzi Imaging: Amastigotes/Cell. […] Cells were then washed once with PBS before infection. T. cruzi trypomastigotes, collected at days 5 to 8 after infection from LLC-MK2 parasite infected cultures, were allowed to swim out for 4h at 37C from a centrifuged pellet (2,500 rpm/10 min/room temperature). Trypomastigotes were then collected and counted in a CASY Cell Counter. Trypomastigotes, in supplemented DMEM, were added to H9c2 cultures in a multiplicity of infection of 1 and incubated for 18 h. Cells were washed once with PBS before incubation of the infected H9c2 monolayer with trypsin (Life-Technologies) to detach cells from the flask. Cells were counted in a CASY Cell Counter using a 150 um capillary and their density set at 5 * 10^4 cells per mL in supplemented assay DMEM. Infected H9c2 were dispensed into 384-well poly-lysine coated assay plates at 50uL per well using a Multidrop Combi dispenser. After seeding them, the plates were incubated at 37C, 5% CO2 for 72h. Cultures were then fixed and stained by addition of 50 uL of a solution containing 8% formaldehyde and 4 uM DRAQ5 DNA dye (BioStatus, UK) per well. […] Five images were collected per well for reliable statistical analysis. Automated image analysis was performed with a script developed on Acapella High Content Imaging and Analysis Software (PerkinElmer). Output: number of amastigotes per cell as infection level measurement.
Type: functional, organism-based, Rattus norvegicus
test parameters: H9c2, 4 h
pIC50: −log10 of the molar value.
experimental readout: pIC50

molecule | sign | measurement
CCCCn1c(=O)c2c(N)onc2n(CCCC)c1=O | = | 4.60
CCc1cccc(-n2nc(OCC(=O)NC3CCCC3)c3cccnc32)c1 | < | 4.30
CC(C)CC(=O)NC(c1cccs1)c1ccc2cccnc2c1O (centres undefined) | = | 6.10
CCNc1cc(-c2ccccn2)nc(Nc2ccc(OC)cc2)n1 | = | 5.60
COc1ccc(OC)c(NC(=O)c2ccc([N+](=O)[O-])o2)c1 | = | 5.10
COc1cc(-c2noc(CC#N)n2)ccc1OC(F)F | = | 4.60
O=C(Cc1ccc2c(c1)CCC2)Nc1nnc(-c2ccccn2)[nH]1 | = | 5.00
O=c1ccn(-c2ccc([N+](=O)[O-])cc2Cl)c2ccc(F)cc12 | = | 5.90
NCc1csc(Nc2cc(Oc3ccccc3)ncn2)n1 | = | 4.50
Cc1ccc(NC(=O)c2ccnc(N3CCCC3)c2)cc1-c1ccsc1C(N)=O | = | 5.10
CC(C)(C)Nc1nc(Nc2ccc3c(c2)CS(=O)(=O)C3)nc2[nH]ccc12 | = | 4.70
CCc1cccc(CC)c1-n1c(SCC(=O)NC(=O)NCc2ccco2)nnc1-c1cccnc1 | = | 5.10
CN1CCC(N(C)c2nccc(N3CCN(C(=O)c4cccc(-c5cccnc5)c4)CC3)n2)CC1 | = | 6.00
O=C1CCCCCC1(Cc1cnc[nH]1)c1ccc(Cl)cc1Cl (centres undefined) | = | 6.50
Cc1cc(Br)sc1CNCCCNc1cc(=O)c2ccccc2[nH]1 | = | 6.30
CCN(Cc1cccs1)C(=O)CSc1nnc(-c2ccc3c(c2)OCO3)o1 | = | 5.80
CC(C)(C)c1cc(NC2CC2)nc(-c2ccccn2)n1 | = | 5.90
OCC1CCCCN1c1cc(-c2ccccn2)nc(Nc2ccccc2)n1 (centres undefined) | = | 5.70
O=S(=O)(c1ccccc1C(F)(F)F)N1CCN(Cc2ccc(-n3ccnc3)cc2)CC1 | = | 6.70
Cc1cc(C)n(-c2nc(NC(C)(C)C)nc(N3CCOCC3)n2)n1 | = | 5.50
Clc1ccc(C(CC2CCCCO2)Cn2cncn2)c(Cl)c1 (centres undefined) | = | 6.00
O=C(CCCn1cnc([N+](=O)[O-])n1)Nc1cccc(Cl)c1 | = | 6.80
Cc1nccn1C1CCCN(C(=O)c2cc3c(F)cccc3s2)C1 (centres undefined) | = | 6.10
O=C(NCCc1ccccn1)C(c1cn[nH]c1)N1CCN(c2ccc(Cl)c(Cl)c2)CC1 (centres undefined) | = | 6.90
O=C(NCCCn1cnc2ccccc21)c1ccc(NC(=O)c2ccco2)cc1 | = | 5.90
O=C(COc1ncnc2cc([N+](=O)[O-])ccc12)NC(=O)NC1CCCCC1 | = | 6.30
COc1ccc(NC(=O)c2ccc(NC(=O)CN(c3ccccc3C)S(C)(=O)=O)cc2)cc1 | = | 4.70
COc1cccc(-c2c(C)nn(-c3nc(N)nc(-c4ccccn4)n3)c2N)c1 | = | 6.30
COc1ccc2nc(N(Cc3cccnc3)C(=O)C3CCC3)sc2c1 | = | 7.00
COCCn1cnc2cc(NC(=O)C3CCCCC3)cc(C(=O)N3CCc4sccc4C3)c21 | = | 4.70
CC(C)(C)Nc1nc(-c2ccccn2)nc2ccccc12 | = | 5.90
O=C(CN(Cc1ccccn1)Cc1ccccn1)NCc1ccc(-c2csnn2)cc1 | = | 5.10
CCNc1cc(-c2ccccn2)nc(Nc2ccccc2)n1 | = | 5.50
Cc1nc(N2CC(C)OC(C)C2)sc1C(=O)Nc1ccc2c(c1)OCO2 (centres undefined) | = | 5.60
O=C(Nc1nc(-c2ccccn2)cs1)c1ccccc1-n1cnnn1 | = | 5.70
COc1ccc(CNc2cc(C3CC3)nc(-c3nccn3C)n2)cc1 | = | 6.20
O=C1CN(Cc2ccco2)C2CS(=O)(=O)CC2N1c1ccc(Cl)cc1 (centres undefined) | < | 4.30
O=C(NC(CO)c1ccc(F)cc1)c1ccc(-c2c[nH]c3ncccc23)s1 (centres undefined) | = | 4.90
CCOc1ccc(Nc2ccc(S(=O)(=O)N3CCN(C)CC3)cc2[N+](=O)[O-])cc1OCC | = | 5.50
CS(=O)(=O)c1ccc(CC(=O)Nc2nc(-c3ccc(Cl)s3)cs2)cc1 | = | 6.40
COc1ccc(C(=O)Nc2ccc(NC(=O)CO)cc2)cc1 | < | 4.30
Cn1nc([N+](=O)[O-])nc1N1CCCCC1 | = | 6.00
CCc1nn(-c2ncc(F)c(NC(C)C)n2)c(N)c1C1CCCCC1 | = | 5.80
N#Cc1ccc(S(=O)(=O)N2CCC3(CCN(c4ccccc4)C3=O)CC2)cc1 | = | 6.20

----------
System: Leishmania donovani
method description: GSK_TCAKS: pIC50 Leishmania donovani Imaging: Infected Macrophages. Assay plates (384-well) were prepared by adding 250nL of compound to each well. For single shot assay, the final compound concentration was 5 uM. […] Automated image analysis was performed with a script developed on Acapella High Content Imaging and Analysis Software (PerkinElmer). Output: Percent of infected macrophage cells were reported for each well.
Format: functional, organism-based, Homo sapiens
test parameters: THP-1
Below is a list of entries, each paired with its recorded IC50 value.

compound | unit tag | sign | IC50
Fc1ccccc1N1C[C@H]2CCN(c3cccnc3)C[C@H]2C1 | µM | > | 50.1
CCN(CC)c1ncc(C(=O)c2ccc([N+](=O)[O-])o2)s1 | µM | = | 10
CN(Cc1nc2cccc(C(=O)N3CCN(Cc4ccccc4)CC3)c2[nH]1)C1CCCc2cccnc21 (configuration not stated) | µM | = | 1.26
COc1ccc(-c2csc(NC(=O)c3ccc([N+](=O)[O-])s3)n2)cc1 | µM | = | 3.98
Cc1cccc(NS(=O)(=O)c2cnc3sc(C)cn3c2=O)c1 | µM | > | 50.1
O=c1ccn(-c2ccc([N+](=O)[O-])cc2Cl)c2ccc(F)cc12 | µM | > | 50.1
CC(C)Oc1ccc(C(=O)Nc2ccc(N3CCOCC3)c(Cl)c2)cc1 | µM | > | 50.1
CC(=O)NC1(c2ccccc2)CCN(CC(=O)Nc2ccccc2-c2ccccc2)CC1 | µM | > | 50.1
COCc1cnc2c(c1SCc1c(F)cccc1Cl)c(=O)n(C)c(=O)n2C | µM | = | 5.01
O=C(CSc1nnc2ccc(-c3ccc(F)cc3)nn12)N1CCCCC1 | µM | > | 50.1
N#Cc1c(Oc2cccc(Cl)c2)cccc1[N+](=O)[O-] | µM | = | 10
O=C(CN(c1cccc(C(F)(F)F)c1)S(=O)(=O)c1ccc(Cl)cc1)NCc1ccc(F)c(F)c1 | µM | > | 50.1
O=C(Nc1cccc(Cl)c1)N1CCCCC1c1cccnc1 (configuration not stated) | µM | > | 50.1
O=C1OCc2ccc(Nc3nccc(-c4cnn5ncccc45)n3)cc21 | µM | = | 0.0158
COc1cnc2ccc(=O)n(CCN3CCC(NC(=O)Cc4ccc(Cl)c(Cl)c4)CC3)c2c1 | µM | = | 39.8
N#Cc1cccc(CNc2ccc(-c3cnn(CC4CC4)c(=O)c3C#N)cc2)c1 | µM | = | 1.26
CN(C)S(=O)(=O)c1cccc(CSc2nnc(-c3ccc4c(c3)OCO4)o2)c1 | µM | = | 2
C=CC[C@@H]1CC=C[C@@H](C)N1C(=O)CCc1nnc(-c2ccc3c(c2)OCO3)o1 | µM | = | 7.94
CS(=O)(=O)N1CCC(Nc2ncc(Br)c(Nc3cccc(F)c3C(N)=O)n2)CC1 | µM | = | 1.58
Cc1c(CNC(=O)c2ccc(Cn3cc(Cl)c([N+](=O)[O-])n3)cc2)cnn1C | µM | > | 50.1
Nc1nonc1-c1nc2cncc(C(=O)N3CC[C@H](N)C3)c2n1CC1CC1 | µM | = | 20
CS(=O)(=O)c1ccc(Nc2nccc(Nc3n[nH]c4ccc(F)cc34)n2)c(F)c1 | µM | = | 12.6
COc1ccc(-c2nc3ccncc3c(=O)n2CCOc2ccccc2)cc1 | µM | > | 50.1
CCN(CC)S(=O)(=O)c1ccc(OC)c(NC(=O)c2ccc([N+](=O)[O-])s2)c1 | µM | > | 50.1
O=C(CCCn1cnc([N+](=O)[O-])n1)Nc1cccc(Cl)c1 | µM | > | 50.1
Cc1ccc(-c2csc(NC(=O)C=Cc3ccc(S(=O)(=O)N4CCOCC4)cc3)n2)o1 | µM | = | 5.01
O=C(NC1CCN(C2Cc3ccc(NS(=O)(=O)c4cc(F)cc(F)c4)cc3C2)CC1)C1CC1 (configuration not stated) | µM | > | 50.1
CNS(=O)(=O)c1ccccc1Nc1nc(Nc2ccnn2C)ncc1Cl | µM | = | 0.631
CC(C)CC(=O)NC(c1cccs1)c1ccc2cccnc2c1O (configuration not stated) | µM | = | 7.94
COc1ccc(Nc2nccc(N(C)c3n[nH]c4c(F)cccc34)n2)cc1S(C)(=O)=O | µM | = | 2.51
COc1ccc(CN(C)Cc2ccncc2)cc1-c1ccc(S(=O)(=O)NC2CCC2)s1 | µM | > | 50.1
Cc1[nH]nc(Nc2ccnc3[nH]ccc23)c1C | µM | > | 50.1
Cc1ccc(C)c(CN2C(=O)NC3(CCc4ccccc43)C2=O)c1 (configuration not stated) | µM | > | 50.1
O=C(c1cccc(Nc2ncc(-c3ccc4c(c3)OCO4)cn2)c1)N1CCOCC1 | µM | = | 3.98
O=c1[nH]c(C=Cc2cccc(OCCOc3ccccc3)c2)nc(O)c1[N+](=O)[O-] | µM | > | 50.1
O=C(NCc1ccc(-n2cccc2)cc1)c1nc(Cn2ccc([N+](=O)[O-])n2)no1 | µM | > | 50.1
Nc1nc(-c2ccccn2)nc(N)c1Cc1c(F)cccc1Cl | µM | = | 1.26
CN(Cc1nc2ccccc2s1)C(=O)C=Cc1cc2ccccc2o1 | µM | > | 50.1
COc1cc(C(C)C)c(S(C)(=O)=O)cc1C(=O)N1CCN(c2ccccc2Cl)CC1 | µM | = | 15.8
COc1ccc(-c2cc(C)no2)cc1S(=O)(=O)Nc1ccc(C)c(C)c1 | µM | = | 2.51
CCCCn1c(=O)c2c(N)onc2n(CCCC)c1=O | µM | > | 50.1
O=c1cc(NCCCNCc2cc(C(F)(F)F)cs2)[nH]c2ccccc12 | µM | = | 39.8
